- experiment.summary: Quantitative High-Throughput drug screen in 47 multiple myeloma cell lines against the NCATS MIPE library collection: Karpas25_ECACC cell viability assay (AID 1918968; also: nearly all actives have a fitted effect of over 35% in size)
- condition.description: Karpas25 myeloma viability, CellTiter-Glo ATP, 48 h; series mostly up to 45.8 µM
Records with an inconclusive call do not appear. Activity calls are given as the source filed them. Calls follow the shape of the dose curve; as a rule, active = well fitted cell-killing curve with a large enough effect; inconclusive = small, poorly fitted or top-dose-only effect, or effect the other way; inactive = no such curve, though single readings can be large or run the other way.
Allowed answers: active, inactive

As a guide, the following entries are already answered.
| molecule | assigned.label |
| --- | --- |
| CC(S)C(=O)NCC(=O)O (stereo not given) | active |
| Cc1cccc(C#Cc2ccccc2)n1 | inactive |
| Oc1ccc(OCc2ccccc2)cc1 | inactive |
| COc1ccccc1N1CCN(CCN(C(=O)C2CCCCC2)c2ccccn2)CC1 | inactive |
| COC1=C(OC)C(=O)C(CCCCCCCCCCO)=C(C)C1=O | active |
| COc1ccc(C2(C#N)CCC(C(=O)O)CC2)cc1OC1CCCC1 (stereo not given) | active |
| Cc1ccc(S(=O)(=O)NC(=O)NN2CC3CCCC3C2)cc1 (stereo not given) | active |
| C[C@H](Cc1ccc(O)c(O)c1)[C@@H](C)Cc1ccc(O)c(O)c1 | active |

query: Give the logged outcome of this assay for the following molecule: `Oc1ccc(-c2nc(-c3ccc(F)cc3)c(-c3ccncc3)[nH]2)cc1`
result: active

query: Give the logged outcome of this assay for the following molecule: `Cc1nc2n(c(=O)c1CCN1CCC(c3noc4cc(F)ccc34)CC1)CCCC2`
result: inactive

query: Give the logged outcome of this assay for the following molecule: Cc1cccc(CN2CCN(C(c3ccccc3)c3ccc(Cl)cc3)CC2)c1 (stereo not given)
result: active

====

- experiment.summary: Drug repurposing screens with cells derived from glioblastoma tumor samples (AID 1345199); also: potency is read from the fitted curve at half-maximal effect; nearly all actives have a fitted effect of over 40% in size
- condition.description: GBM patient neurospheres viability, ATP luminescence, 48 h; tumour line A
Records with an inconclusive call do not appear. Calls of active or inactive are those of the source. The call rests on the fitted dose curve; in most records, active means well fitted inhibition curve with a large enough effect; inconclusive means small, poorly fitted or top-dose-only effect; inactive means flat fitted curve, though single readings scatter.
value.type: Potency

Known Potency results, listed for orientation:
| compound | Potency |
| --- | --- |
| O=C1CCc2ccc(OCCCCN3CCN(c4cccc(Cl)c4Cl)CC3)cc2N1 | 3.98 µM (active) |
| O=C(CS(=O)Cc1ccco1)NCC=CCOc1cc(CN2CCCCC2)ccn1 (stereo unspecified) | 25.1 µM (active) |
| Cc1c(C(=O)NN2CCCCC2)nn(-c2ccc(Cl)cc2Cl)c1-c1ccc(Cl)cc1 | 5.01 µM (active) |
| CN1CCC(=C2c3ccccc3CCc3sccc32)CC1 | 3.98 µM (active) |
| CCN(CCO)CCCC(C)Nc1ccnc2cc(Cl)ccc12 (stereo unspecified) | 11.2 µM (active) |

Proceed to the following item.
query: Look up Potency for this compound: `Cc1nc2n(c(=O)c1CCN1CCC(c3noc4cc(F)ccc34)CC1)CCCC2`
result: 3.55 µM (active)

====

- experiment.summary: qHTS of pediatric cancer cell lines to identify multiple opportunities for drug repurposing: Primary screen for OHS-50 cells (AID 1347103); also: nearly all actives have a fitted effect of over 40% in size; also: potency is read from the fitted curve at half-maximal effect
- condition.description: OHS-50 osteosarcoma viability, CellTiter-Glo luminescence, 48 h; series mostly up to 57.3 µM
Records with an inconclusive call do not appear. Calls of active or inactive are those of the source. The call rests on the fitted dose curve; in most records, active means well fitted cell-killing curve with a large enough effect; inconclusive means small, poorly fitted or top-dose-only effect; inactive means no such curve, though single readings can be large or run the other way.
value.type: Potency

| compound | meas.value |
| --- | --- |
| Clc1ccc(C(Cn2ccnc2)OCc2ccc(Sc3ccccc3)cc2)c(Cl)c1 (stereo not drawn) | inactive |
| CCCCN(CCCC)CCC(O)c1cc2c(Cl)cc(Cl)cc2c2cc(C(F)(F)F)ccc12 (stereo not drawn) | 30.6 µM (active) |
| CCC(C)(Oc1ccc(C2(c3ccc(OC(C)(CC)C(=O)O)cc3)CCCCC2)cc1)C(=O)O (stereo not drawn) | inactive |
| c1cnc2cc3c(cc2n1)C1CNCC3C1 | inactive |

query: Look up Potency for this compound: `Cc1cccc(C)c1OCC(=O)N[C@@H](Cc1ccccc1)[C@@H](O)C[C@H](Cc1ccccc1)NC(=O)[C@H](C(C)C)N1CCCNC1=O`
result: 27.3 µM (active)

query: Look up Potency for this compound: `CS(=O)(=O)OCCCCOS(C)(=O)=O`
result: inactive

query: Look up Potency for this compound: `COc1c(O)cc2c(c1O)[C@@H]1O[C@H](CO)[C@@H](O)[C@H](O)[C@H]1OC2=O`
result: inactive

query: Look up Potency for this compound: `CCOC(=O)C1=C(O)C(=O)N(Cc2ccccc2)C1`
result: inactive

====

- experiment.summary: Quantitative High-Throughput drug screen in 47 multiple myeloma cell lines against the NCATS MIPE library collection: AMO1_DSMZ cell viability assay (AID 1918927; also: nearly all actives have a fitted effect of over 30% in size)
- condition.description: AMO1 myeloma cells viability, CellTiter-Glo ATP luminescence, 48 h; series mostly up to 45.8 µM
Results filed as inconclusive are left out. Active and inactive are the calls of the source. Calls come from the whole dose curve; as a rule, active = well fitted cell-killing curve with a large enough effect; inconclusive = small, poorly fitted or top-dose-only effect, or effect the other way; inactive = no such curve, though single readings can be large or run the other way.
Allowed answers: t = active, f = inactive

| compound | assigned.label |
| --- | --- |
| CC(=O)NC[C@H]1CN(c2ccc(N3CCOCC3)c(F)c2)C(=O)O1 | f |
| Clc1ccc(C(Cn2ccnc2)OCc2c(Cl)cccc2Cl)c(Cl)c1 (stereo not given) | t |
| CN(C)C(=O)[C@H](O)[C@H](Cc1ccccc1)NC(=O)c1cc2cc(Cl)ccc2[nH]1 | t |
| Nc1nc(N)c(N=O)c(OCC2CCCCC2)n1 | t |

Now consider a different compound.
query: Give the logged outcome of this assay for the following compound: O=C(NCC1CCCCN1)c1cc(OCC(F)(F)F)ccc1OCC(F)(F)F (stereo not given)
result: t

====

- experiment.summary: qHTS of pediatric cancer cell lines to identify multiple opportunities for drug repurposing: Primary screen for NB1643 cells (AID 1347099); also: nearly all actives have a fitted effect of over 50% in size; also: potency is read from the fitted curve at half-maximal effect
- condition.description: NB1643 neuroblastoma viability, CellTiter-Glo luminescence, 48 h; series mostly up to 46 µM
Results filed as inconclusive are left out. Active and inactive are the calls of the source. Calls follow the shape of the dose curve; as a rule, active = well fitted cell-killing curve with a large enough effect; inconclusive = small, poorly fitted or top-dose-only effect; inactive = no such curve, though single readings can be large or run the other way.
value.type: Potency

Known Potency results, listed for orientation:
| molecule.smiles | meas.value |
| --- | --- |
| CC(C)C[C@H](NC(=O)[C@H](Cc1ccccc1)NC(=O)c1cnccn1)B(O)O | 29.9 nM (active) |
| CCOC(=O)C1=C(O)C(=O)N(Cc2ccccc2)C1 | inactive |
| CC(C)[C@H](N)C(=O)OCCOCn1cnc2c(=O)[nH]c(N)nc21 | inactive |
| CCOC(=O)C1=C[C@@H](OC(CC)CC)[C@H](NC(C)=O)[C@@H](N)C1 | inactive |
| CCN(CC)CCOc1ccc(Nc2ncc3cc(-c4c(Cl)cccc4Cl)c(=O)n(C)c3n2)cc1 | 3720 nM (active) |

query: Look up Potency for this compound: `O=c1c(O)c(-c2cc(O)c(O)c(O)c2)oc2cc(O)cc(O)c12`
result: inactive

query: Look up Potency for this compound: `Nc1ccc(S(N)(=O)=O)cc1`
result: inactive

query: Look up Potency for this compound: `C=C(c1ccc(C(=O)O)cc1)c1cc2c(cc1C)C(C)(C)CCC2(C)C`
result: inactive

query: Look up Potency for this compound: `CCc1nc(N)nc(N)c1-c1ccc(Cl)cc1`
result: inactive

====

- Test system: ECU
- experiment.summary: qHTS profiling for inhibitors of Plasmodium falciparum proliferation (AID 504749); also: nearly all actives have a fitted effect of over 60% in size
- condition.description: P. falciparum in erythrocytes, SYBR Green DNA, 72 h; series mostly up to 28.7 µM
Results filed as inconclusive are left out. Active and inactive are the calls of the source. Calls follow the shape of the dose curve; as a rule, active = well fitted inhibition curve with a large enough effect; inconclusive = small, poorly fitted or top-dose-only effect; inactive = flat fitted curve, though single readings scatter.
Allowed answers: active, inactive

As a guide, the following entries are already answered.
| molecule | assigned.label |
| --- | --- |
| O=C1c2ccccc2-c2n[nH]c3cccc1c23 | inactive |
| Nc1cc(C(Cl)=C(Cl)Cl)c(S(N)(=O)=O)cc1S(N)(=O)=O | inactive |
| CNC[C@@H](O)[C@@H](O)[C@H](O)[C@H](O)CO | inactive |
| O=C(OC1C[C@H]2CC[C@@H](C1)[N+]21CCCC1)C(O)(c1ccccc1)c1ccccc1 (stereo partly specified) | active |
| O=C(O)c1cc(=O)c2c(OCC(O)COc3cccc4oc(C(=O)O)cc(=O)c34)cccc2o1 | inactive |
| CN1CCC(=C2c3ccccc3CCc3sccc32)CC1 | inactive |
| CC(S)C(=O)NCC(=O)O (stereo unspecified) | inactive |
| CS(=O)(=O)OCCCCOS(C)(=O)=O | inactive |

query: Give the logged outcome of this assay for the following molecule: `C=CCc1cc(OC)c(O)c(C(=O)NCCO)c1`
result: inactive

query: Give the logged outcome of this assay for the following molecule: `CCCCCCCCCCCCCCCCCCCCCCO`
result: inactive

query: Give the logged outcome of this assay for the following molecule: COc1ccc(C2(C#N)CCC(C(=O)O)CC2)cc1OC1CCCC1 (stereo unspecified)
result: inactive

====

- experiment.summary: Quantitative High-Throughput drug screen in 47 multiple myeloma cell lines against the NCATS MIPE library collection: KMS11_JCRBsus cell viability assay (AID 1919873); also: nearly all actives have a fitted effect of over 50% in size
- condition.description: KMS11 myeloma viability, CellTiter-Glo ATP luminescence, 48 h; series mostly up to 45.8 µM
Records with an inconclusive call do not appear. The source made the active and inactive calls. The call rests on the fitted dose curve; in most records, active means well fitted cell-killing curve with a large enough effect; inconclusive means small, poorly fitted or top-dose-only effect, or effect the other way; inactive means no such curve, though single readings can be large or run the other way.
Allowed answers: active, inactive

query: Give the logged outcome of this assay for the following compound: `Oc1ccc(OCc2ccccc2)cc1`
result: inactive

query: Give the logged outcome of this assay for the following compound: COCCCOc1ccnc(CS(=O)c2nc3ccccc3[nH]2)c1C (stereo not given)
result: inactive

// provenance: PubChem BioAssay (NCATS)
